Test system: Escherichia coli (E. coli) strain CFT073 ATCC 700928
Format: cell-based
protocol.conditions: ATCC 700928, 22 h
*1 amine or outer side, *2 acyl side, *3 side chain or, on linkers, in order; H or OH if unused. Where a SMILES comes first, the peptide text is derived from it. [ ]: non-standard residue; d: D form. X17 = CCCCCC[C@@H](O[C@H](C)CN[*:1])[C@@H](C)C(=O)[*:2]; aThr = C[C@H](O)[C@H](N)C(=O)O; NMeL = CN[C@@H](CC(C)C)C(=O)O; Chg = N[C@H](C(=O)O)C1CCCCC1; Dap = NC[C@H](N)C(=O)O
attribute.measured: MIC (µM)

INSERT INTO assay_data (compound, assay_result) VALUES
  ('CCCCCC[C@H]1OC(=O)CNC(=O)[C@H]([C@H](C)O)NC(=O)[C@H](CN)NC(=O)[C@H](Cc2ccccc2)NC(=O)[C@H](CC(C)C)N(C)C(=O)[C@@H]1C', 50);

(I) CCC[C@H]1C(=O)N[C@@H](C2CCCCCC2)C(=O)N[C@@H](CN)C(=O)N[C@@H]([C@H](C)O)C(=O)NCC(=O)O[C@H](C[C@@H]2C[C@@H]3CC[C@@H](C3)C2)[C@@H](C)C(=O)N1C
(II) CCCCCCCCCC[C@H]1OC(=O)CNC(=O)[C@H](C)NC(=O)[C@H](CO)NC(=O)[C@H]([C@@H](C)CC)NC(=O)[C@H](CC(C)C)N(C)C(=O)[C@@H]1C
(III) CCCCCCCCCC[C@H]1OC(=O)CNC(=O)[C@H]([C@H](C)O)NC(=O)[C@H](CO)NC(=O)[C@H](CCC)NC(=O)[C@H](CC(C)C)N(C)C(=O)[C@@H]1C
(IV) CCCCCC[C@H]1O[C@H](C)CNC(=O)[C@H]([C@H](C)O)NC(=O)[C@H](CN)NC(=O)[C@H](C2CCCCC2)NC(=O)[C@H](CC(C)C)N(C)C(=O)[C@@H]1C [Example 140] (cyclo([Chg][Dap][aThr][X17][NMeL]))
Exercise: // smallest MIC at index 0, largest at the end # the answer lists labels in the order requested
Solution: I, II, IV, III

* * *

Test system: Escherichia coli (E. coli) strain CFT073 ATCC 700928
Type: cell-based
protocol.conditions: ATCC 700928, 22 h
*1 amine or outer side, *2 acyl side, *3 side chain or, on linkers, in order; H or OH if unused. Where a SMILES comes first, the peptide text is derived from it. [ ]: non-standard residue; d: D form. The star is where a group is joined. X18 = CCCCCC[C@@H](OCCN[*:1])[C@@H](Cc1ccc(C)cc1)C(=O)[*:2]; X19 = CCCC[C@@H](OC[C@@H](C)N[*:1])[C@@H](CC1CC1)C(=O)[*:2]; X2 = CCCCCC[C@@H](OC[C@@H](C)N[*:1])[C@@H](C)C(=O)[*:2]; aIle = CC[C@@H](C)[C@H](N)C(=O)O; aThr = C[C@H](O)[C@H](N)C(=O)O; NMeL = CN[C@@H](CC(C)C)C(=O)O; Chg = N[C@H](C(=O)O)C1CCCCC1; NMeNva = CCC[C@H](NC)C(=O)O; X8 = NC[C@H]1C[C@H](*)C1; Dap = NC[C@H](N)C(=O)O
attribute.measured: MIC (µM)

Examples with answers:
INSERT INTO measurements (molecule, assay_system, unit_label, assay_result) VALUES
  ('CCCCCC[C@H]1OC[C@@H](C)NC(=O)[C@H](CNCCO)NC(=O)[C@H](CN)NC(=O)[C@H](C2CCCCCC2)NC(=O)[C@H](CC(C)C)N(C)C(=O)[C@@H]1C', 'Escherichia coli (E. coli) strain CFT073 ATCC 700928', 'µM', 6.3),
  ('CCCCCC[C@H]1OC(=O)CNC(=O)[C@H]([C@H](C)O)NC(=O)[C@H](CN)NC(=O)[C@H](C2CCCCC2)NC(=O)[C@H](CC(C)C)N(C)C(=O)[C@@H]1Cc1cccc(C)c1', 'Escherichia coli (E. coli) strain CFT073 ATCC 700928', 'µM', 3.1),
  ('CCCCCCCCCC[C@H]1OC(=O)CNC(=O)[C@H](CO)NC(=O)[C@H](CO)NC(=O)[C@H]([C@@H](C)CC)NC(=O)[C@H](CCCC)N(C)C(=O)[C@@H]1C', 'Escherichia coli (E. coli) strain CFT073 ATCC 700928', 'µM', 13),
  ('CCCCCC[C@H]1OC(=O)CNC(=O)[C@H](CO[C@H]2C[C@H](N)C2)NC(=O)[C@H](CN)NC(=O)[C@H](C2CCCCC2)NC(=O)[C@H](CC(C)C)N(C)C(=O)[C@@H]1C', 'Escherichia coli (E. coli) strain CFT073 ATCC 700928', 'µM', 6.3);

(a) CCCCCC[C@H]1OC(=O)CNC(=O)[C@H]([C@H](C)O)NC(=O)[C@H](CN)NC(=O)[C@H](c2ccccc2)NC(=O)[C@H](CC(C)C)N(C)C(=O)[C@@H]1C
(b) CCCCCC[C@H]1OC(=O)CNC(=O)[C@H](CNC(=O)C2CNC2)NC(=O)[C@H](CN)NC(=O)[C@H](C2CCCCC2)NC(=O)[C@H](CC(C)C)N(C)C(=O)[C@@H]1C
Exercise: Of the two listed items, which has the higher MIC? First: a Second: b Field: selected label. Fill in the label of the entry you choose.
Solution: a

(1) CCCC[C@H]1OC(=O)CNC(=O)[C@H]([C@H](C)O)NC(=O)[C@H](CN)NC(=O)[C@H](C2CCCCC2)NC(=O)[C@H](CC(C)C)N(C)C(=O)[C@@H]1Cc1ccc(C)cc1
(2) CCCCCC[C@H]1OC[C@@H](C)NC(=O)[C@H](CO[C@H]2C[C@H](CN)C2)NC(=O)[C@H](CN)NC(=O)[C@H](C2CCCCC2)NC(=O)[C@H](CC(C)C)N(C)C(=O)[C@@H]1C [Example 149] (cyclo([Chg][Dap]S(X8)[X2][NMeL]))
(3) CCCCCC[C@H]1OC[C@@H](C)NC(=O)[C@H](COc2ccc(CCN)cc2)NC(=O)[C@H](CN)NC(=O)[C@H](C2CCCCC2)NC(=O)[C@H](CC(C)C)N(C)C(=O)[C@@H]1C
Exercise: Put the items in order so that reported MIC rises from first to last. Reply format: the labels, ordered as requested.
Solution: 3, 2, 1

(P) CCCC[C@H]1OC[C@@H](C)NC(=O)[C@H]([C@H](C)O)NC(=O)[C@H](CN)NC(=O)[C@H](C2CCCCC2)NC(=O)[C@H](CCC)N(C)C(=O)[C@@H]1CC1CC1 [Example 147] (cyclo([Chg][Dap][aThr][X19][NMeNva]))
(Q) CCC[C@H]1C(=O)N[C@@H](C2CCCCCC2)C(=O)N[C@@H](CN)C(=O)N[C@@H](CO[C@H]2C[C@H](N)C2)C(=O)NCC(=O)O[C@H](CC2CC3CCC2C3)[C@@H](C)C(=O)N1C (stereo partly drawn)
Exercise: // compare: P vs Q , metric MIC, want the smaller Identify your selection by its label.
Solution: Q
(Q: 2.2 µM, P: 12 µM)

(P) CCCCCC[C@H]1OC(=O)CNC(=O)[C@H]([C@H](C)O)NC(=O)[C@H](CN)NC(=O)[C@H](C2CCCCC2)NC(=O)[C@H](CC(C)C)N(C)C(=O)[C@@H]1CCOc1ccc(C)cc1
(Q) CCCCCC[C@H]1OCCNC(=O)[C@H](CO)NC(=O)[C@H](CN)NC(=O)[C@H]([C@H](C)CC)NC(=O)[C@H](CC(C)C)N(C)C(=O)[C@@H]1Cc1ccc(C)cc1 [Example 110] (cyclo([Dap]S[X18][NMeL][aIle]))
Exercise: Among P and Q , which shows a numerically higher MIC result? Reply with the label of the item you choose.
Solution: Q

(1) COC(C)(C)CCCCCC[C@H]1OC(=O)CNC(=O)[C@H]([C@H](C)O)NC(=O)[C@H](CN)NC(=O)[C@H](C2CCCCC2)NC(=O)[C@H](CC(C)C)N(C)C(=O)[C@@H]1C
(2) CCCCCCCCCC[C@H]1OC(=O)CNC(=O)[C@H]([C@H](C)O)NC(=O)[C@H](CN)NC(=O)[C@H]([C@H](C)CC)NC(=O)[C@H](CCc2ccccc2)N(C)C(=O)[C@@H]1C
(3) CCCCCCCCCC[C@H]1OC(=O)CNC(=O)[C@H](Cc2c[nH]cn2)NC(=O)[C@H](CO)NC(=O)[C@H]([C@@H](C)CC)NC(=O)[C@H](CC(C)C)N(C)C(=O)[C@@H]1C
(4) CCCCCCCCCC[C@H]1OC(=O)CNC(=O)[C@H]([C@H](C)O)NC(=O)[C@H](CN)NC(=O)[C@H](CCCCOC)NC(=O)[C@H](CC(C)C)N(C)C(=O)[C@@H]1C
Exercise: Arrange the 4 entries by MIC so the values rise. A ranking is expressed here by listing the labels in the requested order.
Solution: 1, 3, 4, 2
